- SUBJECT_OF_TEST: T1, human IL-12 (human, UniProt P29460 23-328; P29459 23-219)
- T1 construct: Recombinant (Peprotech); FLAG-tagged IL-12 in the flow cytometry assays, biotinylated in the IL-12Rβ2 assay; also called hIL-12
- T1 sequence 1: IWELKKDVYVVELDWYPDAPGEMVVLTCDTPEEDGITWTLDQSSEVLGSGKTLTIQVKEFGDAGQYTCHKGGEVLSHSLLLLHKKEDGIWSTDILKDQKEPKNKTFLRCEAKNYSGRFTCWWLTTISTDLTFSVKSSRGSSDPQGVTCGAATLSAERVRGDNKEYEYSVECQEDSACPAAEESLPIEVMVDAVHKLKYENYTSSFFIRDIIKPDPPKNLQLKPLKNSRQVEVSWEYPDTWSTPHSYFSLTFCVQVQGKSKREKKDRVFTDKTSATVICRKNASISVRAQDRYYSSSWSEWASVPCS
- T1 sequence 2: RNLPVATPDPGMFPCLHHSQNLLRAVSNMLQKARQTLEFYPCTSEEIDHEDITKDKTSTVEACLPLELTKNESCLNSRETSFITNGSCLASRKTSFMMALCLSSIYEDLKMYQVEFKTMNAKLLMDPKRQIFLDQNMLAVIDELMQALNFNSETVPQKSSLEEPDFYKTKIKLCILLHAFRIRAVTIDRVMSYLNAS
- ASSAY_EXPLANATION: SPR, IgG on Protein A
Measured koff, listed per entry for reference.
Answer in s⁻¹, number only, no unit symbol.

-- ask For the binder Antibody 182 (antibody, human IgG1, kappa, V domains shown) VH: EVQLVQSGAEVKKPGATVKISCKASGYTLSDYYLHWVRQAPEKGLEWMGWIDPENGDTEHAPKFQGRVTITADTSTDTGYLELSSLRSEDTAVYYCAANKELRYFDVWGQGTLVTVSS VL: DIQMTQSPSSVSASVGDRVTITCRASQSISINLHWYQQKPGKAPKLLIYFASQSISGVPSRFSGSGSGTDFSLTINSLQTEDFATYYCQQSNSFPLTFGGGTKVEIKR , report koff.
-- reply 0.000214

-- ask For the binder Antibody 136 (antibody, human IgG1, kappa, V domains shown, Humanized PMA204 (1RZ7 framework)) VH: EVQLVQSGAEVKKPGATVKISCKASGYTFSDYYLHWVRQAPEKGLEWMGWIDPENGDTEYAPKFQGRVTITADTSTDTGYLELSSLRSEDTAVYYCAANKELRYFDVWGQGTLVTVSS VL: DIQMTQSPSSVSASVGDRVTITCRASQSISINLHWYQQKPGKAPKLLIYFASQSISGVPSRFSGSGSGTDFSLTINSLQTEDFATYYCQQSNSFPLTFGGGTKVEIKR , report koff.
-- reply 0.000997

-- ask For the binder Antibody 194 (antibody, human IgG1, kappa, V domains shown) VH: QVQLVQSGAEVKKPGASVKVSCKASGYTLTDYYLHWVRQAPGQGLEWMGWIDPENGDTESAPKFQGRVTMTTDTSTSTAYMELRSLRSDDTAVYYCAANKELRYFDVWGQGTMVTVSS VL: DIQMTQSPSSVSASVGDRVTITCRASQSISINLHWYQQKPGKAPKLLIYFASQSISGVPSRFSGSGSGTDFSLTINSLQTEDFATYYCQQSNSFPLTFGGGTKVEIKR , report koff.
-- reply 0.000194

-- ask For the binder Antibody 177 (antibody, human IgG1, kappa, V domains shown) VH: EVQLVQSGAEVKKPGATVKISCKASGYTFSDYYLHWVRQAPEKGLEWMGWIDPENGDTESAPKFQGRVTITADTSTDTGYLELSSLRSEDTAVYYCAANKELRYFDVWGQGTLVTVSS VL: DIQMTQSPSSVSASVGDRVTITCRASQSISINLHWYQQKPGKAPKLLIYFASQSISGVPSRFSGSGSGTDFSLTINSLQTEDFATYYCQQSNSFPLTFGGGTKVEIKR , report koff.
-- reply 0.000212

-- ask For the binder Antibody 193 (antibody, human IgG1, kappa, V domains shown) VH: QVQLVQSGAEVKKPGASVKVSCKASGYTFTDYYLHWVRQAPGQGLEWMGWIDPENGDTESAPKFQGRVTMTTDTSTSTAYMELRSLRSDDTAVYYCAANKELRYFDVWGQGTMVTVSS VL: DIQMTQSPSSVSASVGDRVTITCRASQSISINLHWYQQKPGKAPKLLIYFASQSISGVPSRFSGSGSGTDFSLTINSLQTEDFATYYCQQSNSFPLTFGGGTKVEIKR , report koff.
-- reply 0.000206
